Field: pKd. Provide a value for each of the binders that follow.
target: MYC bHLH peptide (in MYC/MAX);MAX bHLH peptide (in MYC/MAX) (;, UniProt P01106;P61244 365-454;22-103, |); assay: fluorescence polarization; table heading: affinity; FP: 10 mM Tris-HCl, 50 mM KCl, 1 mM EDTA, 5 mM MgCl2, 10 mM DTT, 2 nM DNA stock mixed 20 ul + 20 ul protein, 30 min, pH and temperature not stated; pulldown: 50 mM Tris-HCl pH 7.5, 5% glycerol, 1.5 mM MgCl2, 150 mM NaCl, 1 mM DTT, IGEPAL, 4 C; details: tags: ;; copies: 1;1; label: 5'-FAM; blunt
Sequence (P01106 365-454, chain 1 of 2): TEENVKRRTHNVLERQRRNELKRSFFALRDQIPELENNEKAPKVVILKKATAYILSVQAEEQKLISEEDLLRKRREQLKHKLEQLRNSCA
Sequence (P61244 22-103, chain 2 of 2): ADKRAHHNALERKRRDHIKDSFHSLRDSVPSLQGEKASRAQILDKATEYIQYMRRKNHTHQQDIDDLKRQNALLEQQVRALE
Kindly note that pKd refers to -log10 of the concentration in mol/L and answer with the value alone.

Req: Look up pKd: VEGFA-1 E box (dsDNA) DNA 1: CCCCCACCACCTGGTGCCTGA DNA 2: TCAGGCACCAGGTGGTGGGGG
Resp: 6.40

Req: Look up pKd: VEGFA-2 E box (dsDNA) DNA 1: CCCCCACCACGCGGTGCCTGA DNA 2: TCAGGCACCGCGTGGTGGGGG
Resp: 6.35
